Just for reference, ChEMBL document CHEMBL3580553 is where these values come from.

Target: Multidrug resistance-associated protein 1 (Homo sapiens)
Sequence (P33527 whole entry): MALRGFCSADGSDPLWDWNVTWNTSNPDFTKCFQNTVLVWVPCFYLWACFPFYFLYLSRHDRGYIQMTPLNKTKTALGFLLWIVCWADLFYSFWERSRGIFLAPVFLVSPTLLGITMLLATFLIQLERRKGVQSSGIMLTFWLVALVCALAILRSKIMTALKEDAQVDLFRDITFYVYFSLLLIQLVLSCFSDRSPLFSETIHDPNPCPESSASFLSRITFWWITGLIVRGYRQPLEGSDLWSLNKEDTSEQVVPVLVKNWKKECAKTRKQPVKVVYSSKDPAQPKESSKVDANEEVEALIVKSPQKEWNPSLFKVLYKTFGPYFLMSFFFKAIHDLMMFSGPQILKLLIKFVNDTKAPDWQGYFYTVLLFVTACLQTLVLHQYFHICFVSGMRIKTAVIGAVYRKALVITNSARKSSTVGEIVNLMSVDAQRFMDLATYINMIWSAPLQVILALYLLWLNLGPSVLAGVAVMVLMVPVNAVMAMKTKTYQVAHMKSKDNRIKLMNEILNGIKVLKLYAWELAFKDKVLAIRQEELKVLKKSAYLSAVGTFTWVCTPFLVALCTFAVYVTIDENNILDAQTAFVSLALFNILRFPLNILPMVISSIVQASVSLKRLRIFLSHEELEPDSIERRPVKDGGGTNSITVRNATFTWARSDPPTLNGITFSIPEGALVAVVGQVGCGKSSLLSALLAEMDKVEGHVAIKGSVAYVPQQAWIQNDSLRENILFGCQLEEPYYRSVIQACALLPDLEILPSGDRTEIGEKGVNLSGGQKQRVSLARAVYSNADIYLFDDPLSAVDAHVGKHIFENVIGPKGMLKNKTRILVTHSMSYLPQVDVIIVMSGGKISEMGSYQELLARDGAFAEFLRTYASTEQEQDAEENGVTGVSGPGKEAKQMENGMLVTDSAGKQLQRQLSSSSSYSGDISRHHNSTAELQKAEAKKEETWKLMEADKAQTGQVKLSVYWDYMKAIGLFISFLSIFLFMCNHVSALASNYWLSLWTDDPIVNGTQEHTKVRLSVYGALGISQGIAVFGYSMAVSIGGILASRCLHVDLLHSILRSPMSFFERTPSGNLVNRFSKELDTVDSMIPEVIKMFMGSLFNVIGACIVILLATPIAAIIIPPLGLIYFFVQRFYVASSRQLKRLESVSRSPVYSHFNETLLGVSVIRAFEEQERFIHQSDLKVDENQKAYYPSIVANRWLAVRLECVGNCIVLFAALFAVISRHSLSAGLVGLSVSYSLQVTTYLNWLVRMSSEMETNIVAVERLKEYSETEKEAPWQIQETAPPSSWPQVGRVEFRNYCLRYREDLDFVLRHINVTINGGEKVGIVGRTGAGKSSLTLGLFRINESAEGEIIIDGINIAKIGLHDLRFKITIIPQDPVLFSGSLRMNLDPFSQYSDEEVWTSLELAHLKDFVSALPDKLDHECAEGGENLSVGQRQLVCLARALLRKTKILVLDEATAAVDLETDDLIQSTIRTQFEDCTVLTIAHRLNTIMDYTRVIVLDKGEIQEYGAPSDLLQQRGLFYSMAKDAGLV
Assay: Modulation of MRP1 (unknown origin) transfected in human 2008/MRP1 cells assessed as potentiation of doxorubicin-induced cytotoxicity measured as doxorubicin IC50 at 1 uM after 5 days by MTS assay relative to doxorubicin alone treated cell
Format: cell-based
Settings: 2008/mrp1, 120 h
measurement.type: Ratio
Response field accepts a number only; no unit should be typed.

Exercise: Quick one: Ratio of COc1cc(OC)c2c(c1)O[C@H](c1cc(OC)c(OC)c(OC)c1)[C@@H](OC(=O)c1ccc(F)c(NC(=O)c3ccc(OC)c(OC)c3)c1)C2 ?
Key: 2.6

Exercise: Quick one: Ratio of COc1cc(OC)c2c(c1)O[C@H](c1cc(OC)c(OC)c(OC)c1)[C@H](OC(=O)c1ccc(F)c(NC(=O)c3ccc(OC)c(OC)c3)c1)C2 ?
Key: 0.8

Exercise: Quick one: Ratio of COc1cc(OC)c2c(c1)O[C@H](c1cc(OC)c(OC)c(OC)c1)[C@@H](OC(=O)c1ccc(F)c(NC(=O)c3cc(OC)c(OC)c(OC)c3)c1)C2 ?
Key: 2.6

Exercise: Quick one: Ratio of COc1cc(OC)c2c(c1)O[C@H](c1cc(OC)c(OC)c(OC)c1)[C@H](OC(=O)c1ccc(F)c(NC(=O)c3cc(OC)c(OC)c(OC)c3)c1)C2 ?
Key: 0.9

###

Molecular target: ATP-dependent translocase ABCB1 (Homo sapiens, UniProt P08183)
Sequence (P08183 whole entry): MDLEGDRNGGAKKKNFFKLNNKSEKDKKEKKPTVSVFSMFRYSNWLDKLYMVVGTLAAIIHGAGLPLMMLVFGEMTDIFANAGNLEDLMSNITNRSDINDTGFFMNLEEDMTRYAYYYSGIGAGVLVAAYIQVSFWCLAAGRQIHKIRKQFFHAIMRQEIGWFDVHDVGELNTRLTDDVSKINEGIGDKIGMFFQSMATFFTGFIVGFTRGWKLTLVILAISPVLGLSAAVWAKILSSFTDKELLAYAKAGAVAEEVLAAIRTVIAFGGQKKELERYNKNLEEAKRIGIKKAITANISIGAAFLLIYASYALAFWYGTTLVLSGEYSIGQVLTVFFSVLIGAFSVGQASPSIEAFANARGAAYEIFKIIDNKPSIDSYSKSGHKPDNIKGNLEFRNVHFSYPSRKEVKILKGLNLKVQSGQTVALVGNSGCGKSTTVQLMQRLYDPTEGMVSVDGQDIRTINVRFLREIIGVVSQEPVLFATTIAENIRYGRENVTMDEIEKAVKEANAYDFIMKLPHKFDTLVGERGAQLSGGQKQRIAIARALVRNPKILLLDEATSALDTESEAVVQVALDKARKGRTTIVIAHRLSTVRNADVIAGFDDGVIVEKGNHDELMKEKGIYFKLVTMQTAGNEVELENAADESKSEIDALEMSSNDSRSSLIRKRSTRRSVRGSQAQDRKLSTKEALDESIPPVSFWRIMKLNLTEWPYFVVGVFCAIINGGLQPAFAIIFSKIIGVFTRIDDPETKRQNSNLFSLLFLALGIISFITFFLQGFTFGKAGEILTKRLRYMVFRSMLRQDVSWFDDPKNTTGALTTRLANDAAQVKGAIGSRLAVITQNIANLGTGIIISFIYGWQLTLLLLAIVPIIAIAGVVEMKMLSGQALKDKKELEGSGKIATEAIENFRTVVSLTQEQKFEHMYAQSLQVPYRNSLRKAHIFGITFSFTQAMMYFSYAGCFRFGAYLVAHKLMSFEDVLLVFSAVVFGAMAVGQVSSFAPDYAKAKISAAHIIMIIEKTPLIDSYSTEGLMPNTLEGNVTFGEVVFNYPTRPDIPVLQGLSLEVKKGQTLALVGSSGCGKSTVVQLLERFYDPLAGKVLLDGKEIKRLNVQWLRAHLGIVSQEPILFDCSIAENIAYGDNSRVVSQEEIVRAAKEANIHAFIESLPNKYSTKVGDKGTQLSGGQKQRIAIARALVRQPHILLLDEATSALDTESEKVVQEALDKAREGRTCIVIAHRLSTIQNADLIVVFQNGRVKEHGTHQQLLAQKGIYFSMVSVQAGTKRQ
Test: Modulation of P-gp (unknown origin) transfected in human MDA435/LCC6MDR cells assessed as reversible of paclitaxel resistance measured as IC50 for paclitaxel at 1 uM after 5 days by CellTiter 96 Aqueous assay relative to PTX alone treated cell
Assay type: cell-based
Conditions: 120 h
Record form. Attribute: Ratio. Fill in for each entry.
Response field accepts a number only; no unit should be typed.

Exercise: Quick one: Ratio of COc1cc(OC)c2c(c1)O[C@H](c1cc(OC)c(OC)c(OC)c1)[C@@H](OC(=O)c1ccc(OC)c(OC)c1)C2=O ?
Key: 4

Exercise: Quick one: Ratio of C=CCOc1cc(C(=O)O[C@@H]2Cc3c(OC)cc(OC)cc3O[C@@H]2c2cc(OC)c(OC)c(OC)c2)cc(OCC=C)c1OCC=C ?
Key: 12.1

Exercise: Quick one: Ratio of COc1cc(OC)c2c(c1)O[C@H](c1cc(OC)c(OC)c(OC)c1)[C@@H](O)C2 ?
Key: 1.1

Exercise: Quick one: Ratio of COc1ccc(C(=O)O[C@H]2C(=O)c3c(OC)cc(OC)cc3O[C@@H]2c2cc(OC)c(OC)c(OC)c2)cc1 ?
Key: 3

Exercise: Quick one: Ratio of COc1cc(OC)c2c(c1)O[C@H](c1cc(OC)c(OC)c(OC)c1)[C@@H](OC(=O)/C=C/c1cc(OC)c(OC)c(OC)c1)C2=O ?
Key: 9.1

Exercise: Quick one: Ratio of COc1ccc(/C=C/C(=O)O[C@H]2Cc3c(OC)cc(OC)cc3O[C@@H]2c2cc(OC)c(OC)c(OC)c2)cc1 ?
Key: 7.8

Exercise: Quick one: Ratio of COc1ccc(/C=C/C(=O)O[C@H]2C(=O)c3c(OC)cc(OC)cc3O[C@@H]2c2cc(OC)c(OC)c(OC)c2)cc1 ?
Key: 3.6

###

Tested on: L929
Assay: Cytotoxicity against mouse L929 cells after 3 days by MTS assay
Type: cell-based
Settings: L929, 72 h
measurement.type: IC50

Exercise: Quick one: IC50 of COc1cc(OC)c2c(c1)O[C@H](c1cc(OC)c(OC)c(OC)c1)[C@@H](OC(=O)c1ccc(F)c(NC(=O)c3ccc(OC)c(OC)c3)c1)C2 ?
Key: > 100 µM

Exercise: Quick one: IC50 of O=C(O[C@@H]1Cc2c(O)cc(O)cc2O[C@@H]1c1cc(O)c(O)c(O)c1)c1cc(O)c(O)c(O)c1 [EPIGALOCATECHIN GALLATE] ?
Key: 82.3 µM

Exercise: Quick one: IC50 of COc1cc(OC)c2c(c1)O[C@H](c1cc(OC)c(OC)c(OC)c1)[C@H](OC(=O)c1ccc(F)c(N(C)C)c1)C2 ?
Key: > 100 µM

Exercise: Quick one: IC50 of COc1cc(OC)c2c(c1)O[C@H](c1cc(OC)c(OC)c(OC)c1)[C@@H](OC(=O)c1ccc(F)c(NC(=O)c3cc(OC)c(OC)c(OC)c3)c1)C2 ?
Key: > 100 µM
